Experiment: physchem
Conditions: pH 7.4 buffer
MEASURED_METRIC: log10 solubility thermodynamic (log10 of the value in µM)
The common logarithm of solubility thermodynamic in µM is what is listed.

Known log10 solubility thermodynamic results, listed for orientation:
[[record]]
compound = "CS(=O)(=O)Cc1cc(N2CCOCC2)nc(-c2cccc3[nH]ccc23)n1"
measured_metric = "log10 solubility thermodynamic"
value_measured = 1.11

[[record]]
compound = "O=C1CSc2ccccc2N1"
measured_metric = "log10 solubility thermodynamic"
value_measured = 2.94

[[record]]
compound = "CCCc1cc(Nc2nc(NCc3cc(C)no3)ncc2Br)n[nH]1"
measured_metric = "log10 solubility thermodynamic"
value_measured = 0.43

[[record]]
compound = "Cc1ccn2c(NC(=O)c3ccccc3)c(-c3cccs3)nc2c1"
measured_metric = "log10 solubility thermodynamic"
value_measured = 0.04

[[record]]
compound = "C[C@@H]1CN(Cc2ccc(F)cc2)[C@@H](C)CN1C(=O)c1cc2c(C(=O)C(=O)N(C)C)cn(C)c2cc1Cl"
measured_metric = "log10 solubility thermodynamic"
value_measured = 1.72


Entry under test: `FC(F)(F)c1nnc2ccc(NCc3cccnc3)nn12` . Its log10 solubility thermodynamic was 2.58

Entry under test: Cc1ccnc(NC(c2ccccn2)c2c(C)[nH]c3ccccc23)c1 (configuration not stated) . Its log10 solubility thermodynamic was 0.15
